# target.under.test: ACE2 (human, UniProt Q9BYF1 18-740)
# Sequence (Q9BYF1 18-740 limits assumed): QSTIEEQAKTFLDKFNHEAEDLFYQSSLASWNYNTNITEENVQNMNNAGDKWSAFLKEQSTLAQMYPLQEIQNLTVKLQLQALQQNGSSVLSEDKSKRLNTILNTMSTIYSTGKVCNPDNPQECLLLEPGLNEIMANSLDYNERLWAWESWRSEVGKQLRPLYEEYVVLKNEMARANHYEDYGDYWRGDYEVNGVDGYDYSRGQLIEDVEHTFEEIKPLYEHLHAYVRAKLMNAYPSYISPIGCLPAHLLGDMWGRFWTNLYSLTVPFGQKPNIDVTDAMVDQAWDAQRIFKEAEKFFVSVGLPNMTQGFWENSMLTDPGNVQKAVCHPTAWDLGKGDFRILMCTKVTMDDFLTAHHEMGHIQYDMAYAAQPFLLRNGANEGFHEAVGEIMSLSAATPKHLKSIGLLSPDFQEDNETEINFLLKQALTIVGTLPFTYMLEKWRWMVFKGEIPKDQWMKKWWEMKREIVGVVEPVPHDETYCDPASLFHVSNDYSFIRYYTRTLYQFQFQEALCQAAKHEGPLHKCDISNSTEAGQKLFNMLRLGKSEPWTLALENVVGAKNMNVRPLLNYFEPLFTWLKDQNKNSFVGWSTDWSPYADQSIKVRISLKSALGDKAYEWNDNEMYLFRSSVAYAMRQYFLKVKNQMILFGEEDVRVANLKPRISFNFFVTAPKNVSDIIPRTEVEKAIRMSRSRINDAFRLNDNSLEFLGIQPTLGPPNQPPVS
// reported log10(kon) per item
All values: log10 kon [M⁻¹ s⁻¹].

Worked cases, log10(kon) given:
Record summary for ACE2 variant antibody 4-41 (VHH) VHH: EVQLVESGGGLVQPGGSLRLSCAASGRTFGDYIMGWFRQAPGKERESVAAINWSGGTTPYADSVKGRFTISADNSKNTAYLQMNSLKPEDTAVYYCATDPPLFCCHVDLWGQGTLVTVSS : reported log10(kon) = 5.26

Record summary for ACE2 variant antibody 4-39 (VHH) VHH: EVQLVESGGGLVQPGGSLRLSCAASGRTFSNAAMGWFRQAPGKEREFVARILWTGASRNYADSVKGRFTISADNSKNTAYLQMNSLKPEDTAVYYCATTENPNPRWGQGTLVTVSS : reported log10(kon) = 5.13

Others:
Record summary for ACE2 variant antibody 4-95 (VHH) VHH: EVQLVESGGGLVQPGGSLRLSCAASGRTFGDYIMGWFRQAPGKEREIVAAINWSAGYTAYADSVKGRFTISADNSKNTAYLQMNSLKPEDTAVYYCATAPPLFCWHFDHWGQGTLVTVSS : reported log10(kon) = 5.62

Record summary for ACE2 variant antibody 4-69 (VHH) VHH: EVQLVESGGGLVQPGGSLRLSCAASGRTFSDDAMGWFRQAPGKEREFVAAINWSGGTTRYADSVKGRFTISADNSKNTAYLQMNSLKPEDTAVYYCATDPPLFWGQGTLVTVSS : reported log10(kon) = 5.00

Record summary for ACE2 variant antibody 4-49 (VHH) VHH: EVQLVESGGGLVQPGGSLRLSCAASGRTFGDYIMGWFRQAPGKERESVAAINWSAGYTAYADSVKGRFTISADNSKNTAYLQMNSLKPEDTAVYYCARASPNTGWHFDHWGQGTLVTVSS : reported log10(kon) = 6.46

Record summary for ACE2 variant antibody 4-75 (VHH) VHH: EVQLVESGGGLVQPGGSLRLSCAASGRTFGDDTMGWFRQAPGKEREFVAAINWTGGYTPYADSVKGRFTISADNSKNTAYLQMNSLKPEDTAVYYCATDPPLFWGQGTLVTVSS : reported log10(kon) = 5.48

Record summary for ACE2 variant antibody 4-33 (VHH) VHH: EVQLVESGGGLVQPGGSLRLSCAASGFTFSRHDMGWFRQAPGKEREFVAGINWESGSTNYADSVKGRFTISADNSKNTAYLQMNSLKPEDTAVYYCAADRGVYGGRWYRTSQYTWGQGTLVTVSS : reported log10(kon) = 5.36

Record summary for ACE2 variant antibody 4-67 (VHH) VHH: EVQLVESGGGLVQPGGSLRLSCAASGRTFSDDTMGWFRQAPGKEREFVAAINWSGDSTYYADSVKGRFTISADNSKNTAYLQMNSLKPEDTAVYYCATDPPLFWGQGTLVTVSS : reported log10(kon) = 4.97
